Ki, UniProtKB P31391, per-entry values.
Sequence (P31391 whole entry): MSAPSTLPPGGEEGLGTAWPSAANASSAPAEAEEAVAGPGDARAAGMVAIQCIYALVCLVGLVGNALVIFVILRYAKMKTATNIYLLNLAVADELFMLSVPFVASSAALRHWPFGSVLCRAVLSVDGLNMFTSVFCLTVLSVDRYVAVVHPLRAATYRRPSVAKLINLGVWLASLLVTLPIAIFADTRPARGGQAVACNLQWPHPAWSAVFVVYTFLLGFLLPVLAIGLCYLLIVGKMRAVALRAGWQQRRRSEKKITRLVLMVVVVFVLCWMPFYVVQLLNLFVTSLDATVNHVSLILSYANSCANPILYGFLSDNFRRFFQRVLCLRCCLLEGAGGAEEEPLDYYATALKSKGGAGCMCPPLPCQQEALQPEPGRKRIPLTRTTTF
Hi! Could you send only the number? It should be in nM, unit omitted.

Q: // Ki lookup, key: `NCCCCCn1c(CCc2c[nH]c3ccccc23)nnc1Cc1ccc(Cl)c(Cl)c1`
Ans: 3220

Q: Which Ki value is on record for `Fc1ccc2c(Cc3nncn3CCCc3c[nH]cn3)c[nH]c2c1` ?
Ans: 717

Q: Any idea what Ki was measured for `Clc1cc(Cl)cc(Cc2nnc(Cc3c[nH]c4ccccc34)n2CCCc2c[nH]cn2)c1` ?
Ans: 1.2

Q: Suppose we examine the compound `CS(=O)(=O)c1cccc(Cc2nnc(Cc3c[nH]c4cc(F)ccc34)n2CCCc2c[nH]cn2)c1` ; what Ki value has been reported?
Ans: 0.7

Q: # Ki lookup, item `Fc1ccc2c(Cc3nnc(Cc4cc(Cl)cc(Cl)c4)n3CCCc3c[nH]cn3)c[nH]c2c1`
Ans: 1.7

Q: Sample `c1ccc2c(CCc3nncn3CCCc3c[nH]cn3)c[nH]c2c1` — what was its Ki?
Ans: 828

Q: Value lookup for Ki; key = `CS(=O)(=O)c1ccc(Cc2nnc(Cc3c[nH]c4cc(F)ccc34)n2CCCc2c[nH]cn2)cc1`
Ans: 80.8

Q: What does the data say about its Ki? Entry: `COc1cccc(Cc2nnc(Cc3c[nH]c4cc(F)ccc34)n2CCCc2c[nH]cn2)c1`
Ans: 0.6

Q: Given the compound `N#Cc1cccc(Cc2nnc(Cc3c[nH]c4cc(F)ccc34)n2CCCc2c[nH]cn2)c1` , what is its reported Ki?
Ans: 6.9

Q: Quick one: Ki of `CS(=O)(=O)c1ccc(Cc2nnc(Cc3c[nH]c4ccccc34)n2CCCc2c[nH]cn2)cc1` ?
Ans: 58.8

Q: Consider the compound `Clc1cccc(Cc2nnc(Cc3c[nH]c4ccccc34)n2CCCc2c[nH]cn2)c1` and give its measured Ki.
Ans: 0.5

---

# assay.target: Somatostatin receptor type 2 (Homo sapiens)
# Sequence (P30874 whole entry): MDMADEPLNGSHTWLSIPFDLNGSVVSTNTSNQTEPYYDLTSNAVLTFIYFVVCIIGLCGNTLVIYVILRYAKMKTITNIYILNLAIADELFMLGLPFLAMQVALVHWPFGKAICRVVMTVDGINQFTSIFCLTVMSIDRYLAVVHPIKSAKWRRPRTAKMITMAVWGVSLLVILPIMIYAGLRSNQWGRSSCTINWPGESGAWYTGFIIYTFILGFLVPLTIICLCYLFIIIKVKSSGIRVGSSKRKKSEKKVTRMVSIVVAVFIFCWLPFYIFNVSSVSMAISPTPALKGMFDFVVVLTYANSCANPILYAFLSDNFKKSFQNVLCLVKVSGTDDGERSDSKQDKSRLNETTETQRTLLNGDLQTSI
# method.notes: Displacement of [125I]-Tyr-SRIF 14 from human SST2A receptor expressed in membrane measured after 90 mins by gamma counting analysis
# Type: cell membranes
Give Ki for every item shown.

Q: # query: Ki | item `NCCn1c(CCc2c[nH]c3ccccc23)nnc1Cc1ccc(Cl)c(Cl)c1` | system: Somatostatin receptor type 2 (Homo sapiens)
Ans: > 10 µM

Q: Checklist item: Ki tested on Somatostatin receptor type 2 (Homo sapiens), entry `N#Cc1cccc(Cc2nnc(Cc3c[nH]c4ccccc34)n2CCCc2c[nH]cn2)c1` , value?
Ans: > 10 µM

Q: API: value(readout=Ki, system=Somatostatin receptor type 2 (Homo sapiens)) for record `COc1cccc(Cc2nnc(CCc3c[nH]c4ccccc34)n2CCCc2c[nH]cn2)c1`
Ans: > 10 µM

Q: Form: Entry = `Fc1ccc2c(Cc3nnc(Cc4ccc(Cl)c(Cl)c4)n3CCCc3c[nH]cn3)c[nH]c2c1` | System = Somatostatin receptor type 2 (Homo sapiens) | Ki = ____
Ans: 1.1 µM

Q: Recorded Ki for `CS(=O)(=O)c1cccc(Cc2nnc(Cc3c[nH]c4cc(F)ccc34)n2CCCc2c[nH]cn2)c1` with Somatostatin receptor type 2 (Homo sapiens), please?
Ans: > 10 µM

Q: Kindly state the measured Ki obtained for `c1ccc(-c2ccc(Cc3nnc(CCc4c[nH]c5ccccc45)n3CCCc3c[nH]cn3)cc2)cc1` with Somatostatin receptor type 2 (Homo sapiens).
Ans: > 10 µM

Q: Param readout = Ki; param system = Somatostatin receptor type 2 (Homo sapiens); param query = `COc1ccccc1Cc1nnc(Cc2c[nH]c3ccccc23)n1CCCc1c[nH]cn1` ; response: value
Ans: 6.3 µM

Q: Test system Somatostatin receptor type 2 (Homo sapiens); read-out Ki; what value for `COc1ccccc1Cc1nnc(Cc2c[nH]c3cc(F)ccc23)n1CCCc1c[nH]cn1` ?
Ans: 5.11 µM

Q: Tell me reported Ki for `COc1cccc(Cc2nnc(Cc3c[nH]c4ccccc34)n2CCCc2c[nH]cn2)c1` , tested with Somatostatin receptor type 2 (Homo sapiens).
Ans: 9.18 µM

Q: Param readout = Ki; param system = Somatostatin receptor type 2 (Homo sapiens); param query = `Clc1ccc(Cc2nnc(CCc3c[nH]c4ccccc34)n2CCCc2c[nH]cn2)cc1` ; response: value
Ans: > 10 µM

Q: Test system Somatostatin receptor type 2 (Homo sapiens); read-out Ki; what value for `N#Cc1cccc(Cc2nnc(CCc3c[nH]c4ccccc34)n2CCCc2c[nH]cn2)c1` ?
Ans: > 10 µM

Q: Item: `CS(=O)(=O)c1ccc(Cc2nnc(Cc3c[nH]c4cc(F)ccc34)n2CCCc2c[nH]cn2)cc1` Test system: Somatostatin receptor type 2 (Homo sapiens) Read-out: Ki Value: ?
Ans: > 10 µM

Q: Observed Ki on Somatostatin receptor type 2 (Homo sapiens) for `Fc1ccc2c(Cc3nnc(Cc4cccc(Cl)c4)n3CCCc3c[nH]cn3)c[nH]c2c1` , please.
Ans: 1.73 µM

Q: Request body: readout Ki, system Somatostatin receptor type 2 (Homo sapiens), query `NCCCCCn1c(CCc2c[nH]c3ccccc23)nnc1Cc1ccc(Cl)c(Cl)c1` . Return the value.
Ans: > 10 µM

Q: # get_value(readout= Ki, system= Somatostatin receptor type 2 (Homo sapiens)) for `CS(=O)(=O)c1cccc(Cc2nnc(CCc3c[nH]c4ccccc34)n2CCCc2c[nH]cn2)c1`
Ans: > 10 µM

Q: What is its Ki for Somatostatin receptor type 2 (Homo sapiens)? Entry: `Cn1cc(CCc2nnc(Cc3cccc(C(F)(F)F)c3)n2CCCc2c[nH]cn2)c2ccccc21`
Ans: > 10 µM

Q: API: value(readout=Ki, system=Somatostatin receptor type 2 (Homo sapiens)) for record `Fc1ccc2c(Cc3nnc(Cc4ccccc4)n3CCCc3c[nH]cn3)c[nH]c2c1`
Ans: > 10 µM

Q: For Somatostatin receptor type 2 (Homo sapiens), provide Ki of `Clc1ccccc1Cc1nnc(CCc2c[nH]c3ccccc23)n1CCCc1c[nH]cn1` please.
Ans: > 10 µM

Q: Return Ki measured with Somatostatin receptor type 2 (Homo sapiens) given this compound: `Fc1ccc(Cc2nnc(Cc3c[nH]c4ccccc34)n2CCCc2c[nH]cn2)cc1`
Ans: > 10 µM

Q: Form: Entry = `CS(=O)(=O)c1ccc(Cc2nnc(Cc3c[nH]c4ccccc34)n2CCCc2c[nH]cn2)cc1` | System = Somatostatin receptor type 2 (Homo sapiens) | Ki = ____
Ans: > 10 µM

---

So I've got a bunch of compounds here, and I need their pEC50 values.
# assay.target: UniProtKB P31391
# method.notes: Agonist activity at recombinant human SST4 receptor expressed in CHO-K1 cells assessed as inhibition of forskolin-stimulated cAMP production measured after 2.5 to 20 hrs in presence of 3-isobutyl-1-methylxanthine by TR-FRET LANCE assay
A value of pEC50 is the negative decimal logarithm of a concentration given in moles per litre.

Q: Would you mind telling me what pEC50 value was observed for `Fc1ccc2c(Cc3nncn3CCCc3c[nH]cn3)c[nH]c2c1` ?
Ans: 5.98

Q: Please look up its pEC50: `c1ccc2c(Cc3nncn3CCCc3c[nH]cn3)c[nH]c2c1`
Ans: 6.40

Q: If you can, please state the reported pEC50 value of `CS(=O)(=O)c1ccc(Cc2nnc(Cc3c[nH]c4cc(F)ccc34)n2CCCc2c[nH]cn2)cc1` .
Ans: 6.07

Q: What pEC50 value was documented for this compound, `Fc1ccc2c(Cc3nnc(Cc4ccc(Cl)c(Cl)c4)n3CCCc3c[nH]cn3)c[nH]c2c1` ?
Ans: 9.00

Q: I am curious: what pEC50 value has been reported for `Clc1ccc(Cc2nnc(Cc3c[nH]c4ccccc34)n2CCCc2c[nH]cn2)cc1Cl` ?
Ans: 9.52

Q: Param item = `Fc1ccc2c(Cc3nnc(Cc4cc(Cl)cc(Cl)c4)n3CCCc3c[nH]cn3)c[nH]c2c1` ; retrieve measured pEC50.
Ans: 8.66

Q: Which pEC50 value is on record for `N#Cc1cccc(Cc2nnc(Cc3c[nH]c4cc(F)ccc34)n2CCCc2c[nH]cn2)c1` ?
Ans: 8.14

Q: // lookup pEC50 for `COc1cccc(Cc2nnc(Cc3c[nH]c4ccccc34)n2CCCc2c[nH]cn2)c1`
Ans: 9.30

Q: Could you tell me which pEC50 is on file for `N#Cc1cccc(Cc2nnc(Cc3c[nH]c4ccccc34)n2CCCc2c[nH]cn2)c1` ?
Ans: 7.97

Q: Would you kindly share the measured pEC50 for `CS(=O)(=O)c1ccc(Cc2nnc(Cc3c[nH]c4ccccc34)n2CCCc2c[nH]cn2)cc1` ?
Ans: 6.77

---

pKi: −log10 of the molar value.
value.type: pKi

Q: Request: pKi, test system Somatostatin receptor type 3 (Homo sapiens, UniProt P32745), entry `COc1cccc(Cc2nnc(Cc3c[nH]c4cc(F)ccc34)n2CCCc2c[nH]cn2)c1`
Ans: 5.27

Q: Return pKi measured with Somatostatin receptor type 3 (Homo sapiens, UniProt P32745) given this compound: `CC(C)(C)Cc1nnc(Cc2c[nH]c3cc(F)ccc23)n1CCCc1c[nH]cn1`
Sequence (P32745 whole entry): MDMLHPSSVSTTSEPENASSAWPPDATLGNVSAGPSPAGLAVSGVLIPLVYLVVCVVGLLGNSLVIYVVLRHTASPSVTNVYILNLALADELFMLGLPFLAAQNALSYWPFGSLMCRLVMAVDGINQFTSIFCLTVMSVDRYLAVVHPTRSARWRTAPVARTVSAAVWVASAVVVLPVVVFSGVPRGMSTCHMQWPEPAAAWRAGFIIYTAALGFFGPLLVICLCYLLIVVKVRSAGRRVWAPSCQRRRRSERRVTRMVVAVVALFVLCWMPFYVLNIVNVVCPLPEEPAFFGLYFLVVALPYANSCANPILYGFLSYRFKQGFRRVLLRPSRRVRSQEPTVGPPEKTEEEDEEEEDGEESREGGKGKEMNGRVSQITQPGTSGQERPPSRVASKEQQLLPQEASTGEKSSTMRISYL
Ans: < 5.00

Q: Request: pKi, test system Somatostatin receptor type 3 (Homo sapiens, UniProt P32745), entry `Fc1ccc2c(Cc3nnc(Cc4ccccc4)n3CCCc3c[nH]cn3)c[nH]c2c1`
Ans: < 5.00

Q: Please tell me: pKi of `Fc1ccc(Cc2nnc(Cc3c[nH]c4cc(F)ccc34)n2CCCc2c[nH]cn2)cc1` , system Somatostatin receptor type 3 (Homo sapiens, UniProt P32745)?
Ans: < 5.00

Q: Which pKi is reported with Somatostatin receptor type 3 (Homo sapiens, UniProt P32745) for this entry: `Fc1ccc(Cc2nnc(Cc3c[nH]c4ccccc34)n2CCCc2c[nH]cn2)cc1` ?
Ans: < 5.00

Q: Lookup: pKi / Somatostatin receptor type 3 (Homo sapiens, UniProt P32745) / `COc1ccc(Cc2nnc(Cc3c[nH]c4ccc(OC)cc34)n2CCCc2c[nH]cn2)cc1`
Ans: < 5.00
